Cited source for all entries: patent US20180280504A1

Test: Glycan array, GcSTn
Format: binding
Settings: summary table
Description: Optimized glycan arrays comprise 71 chemically synthesized and well-defined glycans, most of which comprise Neu5Ac and Neu5Gc glycan pairs. 300 ml of epoxy blocking buffer is prepared by combining 15 ml of 2 M Tris buffer (pH 8) with 0.9 ml of 16.6 M ethanolamine and 284.1 ml of distilled water. […] After extensive washing, binding of antibodies are detected by incubating glycan microarray slides with Cy3-conjugated anti-mouse IgG (Jackson Immunoresearch, West Grove, Pa.) for one hour. […]
The molecules listed here are annotated with their Glycan Array GcSTn.
ASSAY_ENDPOINT: Glycan Array GcSTn (%)

10A5: anti-STn mouse monoclonal, IgG2c κ, from mouse #4406; VH SEQ ID NO: 6, VL SEQ ID NO: 7 (antibody, V domains shown) VH: QVQLKESGPGLVAPSQSLSITCTVSGFSLTSYGVSWVRQPPGKGLEWLGVIWGDGSTNYHSSLISRLSISKDNSKSQVFLKLNSLQTDDTATYYCARAFVYWGQGTLVTVSA VL: QIVLTQSPAIMSASPGEKVTMTCSASSSVSYIHWYQQKSGTSPKRWIYDTSKLASGVPARFSGSGSGTSYSLTISSMEAEDAATYYCQQWSSNPPMLTFGAGTKLELK; 1
7G9: anti-STn mouse monoclonal, IgG2b κ, from mouse #4407; VH SEQ ID NO: 12, VL SEQ ID NO: 9 (antibody, V domains shown) VH: QVQLKESGPGLVAPSQNLSITCTVSGFSLTSYGVNWVRQPPGKGLEWLGVIWGDGSTNYHSALISRLIISKENSKSQVFLKLNSLQTNDTATYYCTKGFVYWGQGTLVTVSA VL: QIVLTQSPAIMSASPGEKVTMTCSASSSVSYMHWYQQKSGTSPKRWIFDTSKLASGVPARFSGSGSGTSYSLTISSMEAEDAATYYCQQWSSNLLTFGAGTKLELK; 7
18C7: anti-STn mouse monoclonal, IgG2c κ, from mouse #4436; VH SEQ ID NO: 4, VL SEQ ID NO: 5 (antibody, V domains shown) VH: QVTLKESGPGILQPSQTLSLTCSFSGFSLSTFGMGVGWIRQPSGKGLEWLAHIWWDDDKYYNPALKSRLTISKDTSKNQVFLKIANVDTADTATYYCARIAYYYGSERDYWGQGTTLTVSS VL: QIVLTQSPAIMSASPGEKVTMTCSASSSISYMHWYHQKPGTSPKRWIYDTSKLASGVPARFSGSGSGTSYSLTISSMEAEDAATYYCHQRSSYTFGGGTKLEIKR; 40
2D4: anti-STn mouse monoclonal, IgG2b κ, from mouse #4407; VH SEQ ID NO: 10, VL SEQ ID NO: 11 (antibody, V domains shown) VH: QVQLQESGPGLVAPSQSLSITCTVSGFSLISYGVNWVRQPPGKGLEWLGVIWGDGSTNYQSALISRLIISKDNSKSQVFLKLNSLQTDDTATYYCTKGFAYWGQGTLVTVSA VL: QIVLTQSPAIMSASPGEKVTMTCSASSSVSYMHWFQQKSGTSPKRWIYDTSKLASGVPARFSGSGSGTSYSLTISSMEAEDAATYYCQQWSSNLLTFGAGTKLELK; 1
8C11: anti-STn mouse monoclonal, IgG2b κ, from mouse #4407; VH SEQ ID NO: 8, VL SEQ ID NO: 9 (antibody, V domains shown) VH: QVQLKESGPGLVAPSQSLSITCTVSGFSLTSYGVSWVRQPPGKGLEWLGVIWGDGSTNYHSALISRLIISKDNSKSQVFLKLNSLQTDDTATYYCTKGFTYWGQGTLVTVSA VL: QIVLTQSPAIMSASPGEKVTMTCSASSSVSYMHWYQQKSGTSPKRWIFDTSKLASGVPARFSGSGSGTSYSLTISSMEAEDAATYYCQQWSSNLLTFGAGTKLELK; 9
